Reported IC50 is given for each of the following compounds.
measured target: EGFR wildtype (WT) (Homo sapiens, UniProt P00533)
Sequence (P00533 25-1210): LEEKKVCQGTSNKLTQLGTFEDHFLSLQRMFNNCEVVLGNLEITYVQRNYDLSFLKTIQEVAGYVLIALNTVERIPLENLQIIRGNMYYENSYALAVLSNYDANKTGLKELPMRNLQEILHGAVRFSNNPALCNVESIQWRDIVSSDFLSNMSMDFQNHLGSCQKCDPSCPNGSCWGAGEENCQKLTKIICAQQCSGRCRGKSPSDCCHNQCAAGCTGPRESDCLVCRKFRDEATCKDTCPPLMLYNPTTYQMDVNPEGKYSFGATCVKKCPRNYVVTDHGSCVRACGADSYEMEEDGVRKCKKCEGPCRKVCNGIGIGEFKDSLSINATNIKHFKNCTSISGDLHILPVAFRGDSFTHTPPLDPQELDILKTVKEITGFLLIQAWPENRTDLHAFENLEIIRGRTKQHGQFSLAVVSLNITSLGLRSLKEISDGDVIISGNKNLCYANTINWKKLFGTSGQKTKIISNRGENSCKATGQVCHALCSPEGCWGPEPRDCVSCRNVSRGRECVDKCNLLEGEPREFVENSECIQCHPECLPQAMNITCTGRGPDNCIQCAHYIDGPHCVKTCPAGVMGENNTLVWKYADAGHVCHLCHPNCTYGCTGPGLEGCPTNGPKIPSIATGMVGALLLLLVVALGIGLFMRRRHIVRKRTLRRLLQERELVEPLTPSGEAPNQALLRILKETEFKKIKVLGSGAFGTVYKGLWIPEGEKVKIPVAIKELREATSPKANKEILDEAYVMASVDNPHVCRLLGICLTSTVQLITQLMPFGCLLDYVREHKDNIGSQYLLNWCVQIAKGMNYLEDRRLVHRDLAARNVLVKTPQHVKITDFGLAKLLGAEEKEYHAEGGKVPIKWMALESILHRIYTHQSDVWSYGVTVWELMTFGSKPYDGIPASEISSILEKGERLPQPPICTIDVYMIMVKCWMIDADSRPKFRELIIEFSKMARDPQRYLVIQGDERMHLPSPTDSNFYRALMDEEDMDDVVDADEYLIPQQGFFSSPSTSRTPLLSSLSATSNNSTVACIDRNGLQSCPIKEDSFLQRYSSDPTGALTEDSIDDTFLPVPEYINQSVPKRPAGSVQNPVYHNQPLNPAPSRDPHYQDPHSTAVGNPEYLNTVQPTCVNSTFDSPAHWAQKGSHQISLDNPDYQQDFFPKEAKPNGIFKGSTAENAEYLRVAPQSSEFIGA
experiment notes: Biochemical EGFR kinase assay (Lance Ultra TR-FRET), wildtype
condition context: read-out: IC50 WT (nM) 100 μM ATP; 100 μM ATP

Recorded IC50, per entry:
CC(C)(O)[C@H]1CC[C@@H](Nc2cc(Nc3ccnc(-c4cnn(S(=O)(=O)C5CC5)c4)n3)ncc2-c2csc(C(F)(F)F)n2)CC1 [Example 49] : > 10000 nM
Cn1ccc(-c2cnc(Nc3ccnc(-c4cnn(S(=O)(=O)C5CC5)c4)n3)cc2N[C@H]2CC[C@](O)(C(F)(F)F)CC2)n1 [Example 94] : > 10000 nM
O=S(=O)(C1CC1)n1cc(-c2nccc(Nc3cc(NC[C@H]4CC[C@H](NCC(F)F)CC4)c(-c4ccn(C(F)F)n4)cn3)n2)cn1 [Example 130] : > 10000 nM

API: the following record is the query input.
Give the measured IC50 of CS(=O)(=O)n1cc(-c2nccc(Nc3cc(N[C@H]4CC[C@@](C)(O)CC4)c(-c4ccn(C(F)F)n4)cn3)n2)cn1 [Example 112] . > 10000 nM
